Tested on: DNA aptamer or structured DNA GGGACGACTGGCGCCGGATTCCCTAAGGTACACGGACTGTCGTCCC
Settings: 10 mM Tris-HCl, pH 7.4
Readout: pKd
Scale: negative log10 of molar concentration, which is what pKd denotes.

Inquiry: What does the record list as pKd for COc1ccc2c3c1O[C@H]1C(=O)CC[C@@]4(O)[C@@H](C2)N(C)CC[C@]314 ?
Reply text: 5.51

----------
Test system: DNA aptamer or structured DNA CTTACGACGGGTAGGCTGAGGGTCTGGAGTGGTTGGAAGTCGTAAG
Settings: 10 mM Tris-HCl, pH 7.4
Readout: pKd
Scale: negative log10 of molar concentration, which is what pKd denotes.

Inquiry: What does the record list as pKd for COC(=O)[C@@H]1C2CCC(C[C@@H]1OC(=O)c1ccccc1)N2C (stereo partly specified) ?
Reply text: 6.35

----------
System: DNA aptamer or structured DNA GGGACGACTGCTTGGGTAGGTCGGGCTTGGGTTCGGCGGTCGTCCC
Settings: 10 mM Tris-HCl, pH 7.4
Readout: binding call; also: call rule not given here

CN(C)CCCN1c2ccccc2CCc2ccc(Cl)cc21    no binding
CN(C)CCOC(c1ccccc1)c1ccccc1    binds
CC(N)Cc1ccccc1 (stereo not drawn)    no binding
CCC(=O)C(CC(C)N(C)C)(c1ccccc1)c1ccccc1 (stereo not drawn)    binds
CN(C)CCCC1(c2ccc(F)cc2)OCc2cc(C#N)ccc21 (stereo not drawn)    no binding

Inquiry: What does the record list as binding call for CCOC(=O)c1ccc(N)cc1 ?
Reply text: no binding

Inquiry: What does the record list as binding call for CC(C)[C@H](NC(=O)c1nn(Cc2ccc(F)cc2)c2ccccc12)C(N)=O ?
Reply text: no binding

Inquiry: What does the record list as binding call for C=C[C@H]1CN2CC[C@@H]1C[C@H]2[C@H](O)c1ccnc2ccc(OC)cc12 ?
Reply text: no binding

Inquiry: What does the record list as binding call for COc1cccc([C@@]2(O)CCCC[C@@H]2CN(C)C)c1.O=C(O)[C@@H](O)c1ccccc1 ?
Reply text: no binding

Inquiry: What does the record list as binding call for C=CCN1CC[C@]23c4c5ccc(O)c4O[C@H]2C(=O)CC[C@@]3(O)[C@H]1C5 ?
Reply text: no binding

Inquiry: What does the record list as binding call for COC(=O)C(c1ccccc1)C1CCCCN1 (stereo not drawn) ?
Reply text: binds

Inquiry: What does the record list as binding call for CN[C@@H](C)[C@@H](O)c1ccccc1 ?
Reply text: no binding

Inquiry: What does the record list as binding call for COC(=O)[C@@H]1C2CCC(C[C@@H]1OC(=O)c1ccccc1)N2C (stereo partly drawn) ?
Reply text: no binding

----------
System: DNA aptamer or structured DNA GGGACGACGGGGATTCGCGGATTCGGAGAAAAGGGCTCGTACGTCGTCCC
Settings: 10 mM Tris-HCl, pH 7.4
Readout: pKd
Scale: negative log10 of molar concentration, which is what pKd denotes.

Inquiry: What does the record list as pKd for CN1CC[C@]23c4c5ccc(O)c4O[C@H]2[C@@H](O)C=C[C@H]3[C@H]1C5 ?
Reply text: 5.64

----------
Test system: DNA aptamer or structured DNA CTTACGACTAGGTGTGGGTCGGCTCCGGATGGAGGGTAGTCGTAAG
Settings: 10 mM Tris-HCl, pH 7.4
Readout: pKd
Scale: negative log10 of molar concentration, which is what pKd denotes.

Inquiry: What does the record list as pKd for COC(=O)[C@@H]1C2CCC(C[C@@H]1OC(=O)c1ccccc1)N2C (stereo partly specified) ?
Reply text: 6.29

----------
System: DNA aptamer or structured DNA GGGACGACGGGATTCGGATCGTGGAACAGTGCCTCGTCGTCGTCCC
Settings: 10 mM Tris-HCl, pH 7.4
Readout: binding call; also: call rule not given here

Record excerpt, results attached:
CCNC(C)C(=O)c1ccc2c(c1)OCO2 (configuration not stated)    no binding
c1ccc([C@H]2CN3CCSC3=N2)cc1    no binding
O=C1CN=C(c2ccccc2Cl)c2cc([N+](=O)[O-])ccc2N1    no binding
O=C1CC[C@@]2(O)[C@H]3Cc4ccc(O)c5c4[C@@]2(CCN3CC2CC2)[C@H]1O5    binds
Cn1c(=O)c2c(ncn2C)n(C)c1=O    no binding
CC(=O)Nc1ccc(O)cc1    no binding
COC(=O)[C@@H]1C2CCC(C[C@@H]1OC(=O)c1ccccc1)N2C (some centres not stated)    no binding
CCN(CC)CC(=O)Nc1c(C)cccc1C    no binding
CN1C(=O)CN=C(c2ccccc2)c2cc(Cl)ccc21    no binding
CCN(CC)CCOC(=O)c1ccc(N)cc1    no binding

Inquiry: What does the record list as binding call for C[N+]1(CC2CC2)CC[C@]23c4c5ccc(O)c4O[C@H]2C(=O)CC[C@@]3(O)[C@H]1C5 (some centres not stated) ?
Reply text: binds

Inquiry: What does the record list as binding call for CN(C)CCOC(c1ccccc1)c1ccccc1 ?
Reply text: no binding

----------
System: DNA aptamer or structured DNA CTTACGACAAGGGATGTTTGTTAGTGTGTCGGATCTATGTCGTAAG
Settings: 10 mM Tris-HCl, pH 7.4
Readout: binding call; also: call rule not given here

Record excerpt, results attached:
NCCc1ccc(O)c(O)c1    no binding
CN(C)CCOC(c1ccccc1)c1ccccc1    no binding
CCOC(=O)c1ccc(N)cc1    no binding
CCCCCc1cc(O)c2c(c1)OC(C)(C)[C@@H]1CCC(C)=C[C@@H]21    no binding
Cn1c(=O)c2c(ncn2C)n(C)c1=O    no binding

Inquiry: What does the record list as binding call for c1ccc([C@H]2CN3CCSC3=N2)cc1 ?
Reply text: binds

Inquiry: What does the record list as binding call for CNC(C)C(=O)c1ccc(C)cc1 (configuration not stated) ?
Reply text: binds

----------
Tested on: DNA aptamer or structured DNA CTTACGACACATTTGGGTATTCTGGGTGAGCTGTGTCGTAAG
Settings: 10 mM Tris-HCl, pH 7.4
Readout: pKd
Scale: negative log10 of molar concentration, which is what pKd denotes.

Inquiry: Identify the measured pKd of COC(=O)[C@@H]1C2CCC(C[C@@H]1OC(=O)c1ccccc1)N2C (stereo partly specified) for DNA aptamer or structured DNA CTTACGACACATTTGGGTATTCTGGGTGAGCTGTGTCGTAAG.
Reply text: 6.22

----------
Tested on: DNA aptamer or structured DNA GGGACGACGCGTAGGTTCCCTAGCTGTGCGTCGTTCAAGTCGTCCC
Settings: 10 mM Tris-HCl, pH 7.4
Readout: Kd (µM)
Please respond with the number in µM and leave the unit unwritten.

Inquiry: Identify the measured Kd of CC(=O)Oc1ccc2c3c1O[C@H]1[C@@H](OC(C)=O)C=C[C@H]4[C@@H](C2)N(C)CC[C@@]341 for DNA aptamer or structured DNA GGGACGACGCGTAGGTTCCCTAGCTGTGCGTCGTTCAAGTCGTCCC.
Reply text: 3.4

----------
System: DNA aptamer or structured DNA GGGACGACGGAAGGGTGTGCTGCGGTTTGGCTTCTGGCGTCGTCCC
Settings: 10 mM Tris-HCl, pH 7.4
Readout: binding call; also: call rule not given here

Record excerpt, results attached:
CC(=O)Oc1ccc2c3c1O[C@H]1[C@@H](OC(C)=O)C=C[C@H]4[C@@H](C2)N(C)CC[C@@]341    no binding
CCN(CC)CC(=O)Nc1c(C)cccc1C    no binding
CCC(=O)C(CC(C)N(C)C)(c1ccccc1)c1ccccc1 (configuration not stated)    no binding
C=C(C)[C@@H]1CCC(C)=CC1c1c(O)cc(CCCCC)cc1O (some centres not stated)    no binding
CCCCCc1cc(O)c2c(c1)OC(C)(C)C1CC=C(C)CC21 (configuration not stated)    no binding

Inquiry: What does the record list as binding call for NCCc1c[nH]c2ccc(O)cc12 ?
Reply text: no binding

Inquiry: What does the record list as binding call for CCOC(=O)c1ccc(N)cc1 ?
Reply text: no binding

----------
Test system: DNA aptamer or structured DNA TTCAAATCTGAGCAGCCTAGTTACTGACGGGTTTATAGTACTCGCATCGAGTCTAGATTTGAA
Settings: 10 mM Tris-HCl, pH 7.4
Readout: binding call; also: call rule not given here

Record excerpt, results attached:
N[C@@H](Cc1ccccc1)C(=O)O    no binding
CNC(C)Cc1ccc2c(c1)OCO2 (stereo not drawn)    no binding
CCC(=O)C(CC(C)N(C)C)(c1ccccc1)c1ccccc1 (stereo not drawn)    no binding
CNC(C)Cc1ccc(O)cc1 (stereo not drawn)    no binding
CC(NC(C)(C)C)C(=O)c1cccc(Cl)c1 (stereo not drawn)    no binding

Inquiry: What does the record list as binding call for CNC[C@H](O)c1ccc(O)c(O)c1 ?
Reply text: no binding

Inquiry: What does the record list as binding call for NCCc1ccc(O)c(O)c1 ?
Reply text: binds

Inquiry: What does the record list as binding call for O=C(O)Cc1ccc(O)c(O)c1 ?
Reply text: no binding

Inquiry: What does the record list as binding call for Cn1c(=O)c2c(ncn2C)n(C)c1=O ?
Reply text: no binding

Inquiry: What does the record list as binding call for COC(=O)C(c1ccccc1)C1CCCCN1 (stereo not drawn) ?
Reply text: no binding

Inquiry: What does the record list as binding call for NCCc1c[nH]c2ccc(O)cc12 ?
Reply text: no binding

Inquiry: What does the record list as binding call for CN(C)CCOC(c1ccccc1)c1ccccc1 ?
Reply text: no binding

Inquiry: What does the record list as binding call for NCC(O)c1ccc(O)c(O)c1 (stereo not drawn) ?
Reply text: binds
